Tested on: L1210 leukemia ip in BDF1 mice, survival T/C
Experiment: NCI In Vivo Anticancer Drug Screen. Data for tumor model L1210 Leukemia (intraperitoneal) in B6D2F1 (BDF1) mice
Details: endpoint: mean survival time; dose: 37.5 mg/kg/injection; schedule: Q04DX003 (ip); vehicle: saline; higher = longer survival
Inconclusive results and toxic doses are left out.
Reported T/C values for a set of molecules

Answered cases to consult:
molecule | target_of_assay | T/C
COC(=O)c1[nH]cnc1N1CC[N+](CCCl)=N1 | L1210 leukemia ip in BDF1 mice, survival T/C | 100 % of control
NCCSC1(O)C(=O)c2ccccc2C1=O | L1210 leukemia ip in BDF1 mice, survival T/C | 97 % of control
c1ccc2c(c1)c(N1CCOCC1)nn1nnnc21 | L1210 leukemia ip in BDF1 mice, survival T/C | 101 % of control

As a next step, examine the molecule that follows.
State its T/C for this molecule: CCC1(C)N=C(N)N=C(N)N1c1ccc(Cl)c(Cl)c1 (centres undefined) 111 % of control
